protocol_notes: Lipid nanoparticle size and polydispersity by dynamic light scattering (Malvern Zetasizer Nano ZS)
Type: physicochemical
condition_description: LNP of cationic lipid/DSPC/cholesterol/PEG-lipid 50:10:38.5:1.5 with mRNA
For each entry below, report its polydispersity value.

Problem: I would be grateful if you could share the reported polydispersity for CCCCCCC(CCCCCC)COC(=O)CCCCCN(CCN1CCC(O)C1)CC(COC(=O)CCCCC)OC(=O)CCCCC (stereo not drawn) [Compound 63] .
Result: 0.076

Problem: I would be grateful if you could share the reported polydispersity for CCCCCCCCCCCCOCC(CN(CCCCCC(=O)OCC(CCCCCC)CCCCCCCC)CCN(CCO)C1CC1)OCCCCCCCCCCCC (stereo not drawn) .
Result: 0.139

Problem: I would be grateful if you could share the reported polydispersity for CCCCCCCCC(CCCCCCCC)COC(=O)CCOCC(CN(C)CCN(CCO)C1CCC1)OCCC(=O)OCC(CCCCCCCC)CCCCCCCC (stereo not drawn) .
Result: 0.034

Problem: I would be grateful if you could share the reported polydispersity for CCCCCCCCC(CCCCCCCC)CNC(=O)CCOCC(CN(C)CCN(CCO)C1CCCCC1)OCCC(=O)NCC(CCCCCCCC)CCCCCCCC (stereo not drawn) .
Result: 0.14

Problem: I would be grateful if you could share the reported polydispersity for CCCCCCCCCCCCOCC(CN(CCO)C1CCC1)OC(=O)CCCCCCCCCCC (stereo not drawn) .
Result: 0.094

Problem: I would be grateful if you could share the reported polydispersity for CCCCCCCCC(CCCCCC)CC(=O)OCC(CCCCN(CCN(CCO)CCCCC)C1CCC1)COC(=O)CC(CCCCCC)CCCCCCCC (stereo not drawn) .
Result: 0.038

Problem: I would be grateful if you could share the reported polydispersity for CCCCCCCCCCCCOCC(CN(CCO)C1CCC1)OCCCCCC(=O)OCC(CCCCCC)CCCCCCCC (stereo not drawn) .
Result: 0.2

Problem: I would be grateful if you could share the reported polydispersity for CCCCCCCCCCCCOCC(O)CN(CCO)CCCCCC(=O)OCC(CCCCCC)CCCCCCCC (stereo not drawn) .
Result: 0.128

Problem: I would be grateful if you could share the reported polydispersity for CCCCCCCCCCCC(=O)OCC(CN(CCCCCC(=O)OCC(CCCCCC)CCCCCC)CCN1CCC(O)C1)OC(=O)CCCCC (stereo not drawn) .
Result: 0.075

Problem: I would be grateful if you could share the reported polydispersity for CCCCC/C=C\C/C=C\CCCCCCCC(=O)OCC(CCCCN(CCO)C1CCCCCCC1)COC(=O)CC(CCCCCC)CCCCCCCC (stereo not drawn) .
Result: 0.111

Problem: I would be grateful if you could share the reported polydispersity for CCCCCCCCC(CCCCCCCC)CNC(=O)CCOCC(CN(C)CCN(CCO)C1CCCC1)OCCC(=O)NCC(CCCCCCCC)CCCCCCCC (stereo not drawn) .
Result: 0.055

Problem: I would be grateful if you could share the reported polydispersity for CCCCCCCCCCCCCCCC(=O)OCC(CCCCN(CCO)C1CCCCCCC1)COC(=O)CC(CCCCCC)CCCCCCCC (stereo not drawn) .
Result: 0.063

Problem: I would be grateful if you could share the reported polydispersity for CCCCCCCCCCCCOCC(CN(CCCCCC(=O)OCC(CCCCCC)CCCCCCCC)CCN(CCO)C1CCC1)OCCCCCC (stereo not drawn) .
Result: 0.076

Problem: I would be grateful if you could share the reported polydispersity for CCCCCCCCCCCCOCC(CN(C)CCN(CCO)C1CCCC1)OCCCCCC (stereo not drawn) .
Result: 0.384

Problem: I would be grateful if you could share the reported polydispersity for CCCCC/C=C\C/C=C\CCCCCCCC(=O)OCC(CCCCN(CCO)C1CCC1)COC(=O)CC(CCCCCC)CCCCCCCC (stereo not drawn) .
Result: 0.04
